Target: AKT (Homo sapiens)
Construct: Kinases are expressed as either kinase domains or full length constructs; made in house
Sequence (Q9Y243 whole entry, the tested form may be a part): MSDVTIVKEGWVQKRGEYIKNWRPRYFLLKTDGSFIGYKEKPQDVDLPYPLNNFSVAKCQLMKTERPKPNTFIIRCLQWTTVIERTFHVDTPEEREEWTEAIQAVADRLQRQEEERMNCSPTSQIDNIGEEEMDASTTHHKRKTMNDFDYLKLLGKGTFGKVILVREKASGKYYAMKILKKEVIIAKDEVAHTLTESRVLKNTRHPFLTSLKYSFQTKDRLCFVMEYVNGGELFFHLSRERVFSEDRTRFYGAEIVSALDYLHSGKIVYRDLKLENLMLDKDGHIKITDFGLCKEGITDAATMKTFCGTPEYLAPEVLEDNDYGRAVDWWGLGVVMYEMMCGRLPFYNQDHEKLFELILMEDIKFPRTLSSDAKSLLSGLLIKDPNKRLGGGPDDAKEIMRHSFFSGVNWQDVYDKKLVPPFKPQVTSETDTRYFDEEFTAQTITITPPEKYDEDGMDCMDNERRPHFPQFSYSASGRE
Assay: Kinase inhibition assay (33P transfer), AKT
Assay type: biochemical
Settings: Table 2, kinase inhibition class; read-out: AKT3-1
pIC50: −log10 of the molar value.
OBSERVED_PROPERTY: pIC50

Problem: Query: pIC50; subject: COC(=O)c1cc(Nc2ncnc(Nc3cc(-c4ccco4)n[nH]3)n2)cc(C(=O)OC)c1 [Compound 343]
Solution: < 4.99

Problem: Query: pIC50; subject: COc1cc(Nc2ncnc(-n3c(NCCc4cccnc4)nc4ccccc43)n2)cc(OC)c1OC [Compound 947]
Solution: < 5.04

Problem: Query: pIC50; subject: c1csc(-c2ncnc(Nc3ccncc3)n2)c1 [Compound 363]
Solution: < 4.75

Problem: Query: pIC50; subject: NC(=O)c1cccc(Nc2ncnc(-c3cccs3)n2)c1 [Compound 358]
Solution: < 4.82

Problem: Query: pIC50; subject: COc1cc(Nc2ncnc(NC(=O)Nc3ccccc3)n2)cc(OC)c1OC [Compound 852]
Solution: < 4.94

Problem: Query: pIC50; subject: COc1cc(Nc2ncnc(-c3ccnc(NCCCN)c3)n2)cc(OC)c1OC [Compound 45]
Solution: < 4.96

Problem: Query: pIC50; subject: COc1cc(Nc2ncnc(-n3c(Nc4ccc(OC(F)(F)F)cc4)nc4ccccc43)n2)cc(OC)c1OC [Compound 1050]
Solution: < 5.09

Problem: Query: pIC50; subject: COc1cc(Nc2ncnc(Nc3ccc(OCc4ccccc4)cc3)n2)cc(OC)c1 [Compound 156]
Solution: < 4.98

Problem: Query: pIC50; subject: COc1cc(Nc2ncnc(Nc3ccc4cn[nH]c4c3)n2)cc(OC)c1OC [Compound 70]
Solution: < 4.94

meta.source: patent US7074789B2
